Measured combination Emax of individual entries
- System: PSN1 (Pancreatic Carcinoma)
- protocol-notes: combination Emax (second highest fraction inhibited in the dose matrix, 72 h); higher = more inhibition; extreme values may be limits of the assay
measured-attribute: combination Emax

INSERT INTO measurements (molecule, result) VALUES
  ('CN(CCO)CC[C@H](CSc1ccccc1)Nc1ccc(S(=O)(=O)NC(=O)c2ccc(N3CCC([C@@H](O)c4ccccc4-c4ccc(Cl)cc4)CC3)cc2)cc1S(=O)(=O)C(F)(F)F [AZD4320] + C1CN(CCC1(C(=O)N[C@@H](CCO)C2=CC=C(C=C2)Cl)N)C3=NC=NC4=C3C=CN4 [Capivasertib] (first compound max 1 µM, 7x7, partner max 3 µM)', 0.276),
  ('Cc1c2c(nn1C)CSCc1cc(n(C)n1)CSc1cc(c3ccccc3c1)OCCCc1c(C(=O)O)n(C)c3c-2c(Cl)ccc13 [AZD5991] + Cn1cnc2c(F)c(Nc3ccc(Br)cc3Cl)c(C(=O)NOCCO)cc21 [Selumetinib] (first compound max 1 µM, 7x7, partner max 3 µM)', 0.67),
  ('CC1(C)CCC(CN2CCN(c3ccc(C(=O)NS(=O)(=O)c4ccc(NCC5CCOCC5)c([N+](=O)[O-])c4)c(Oc4cnc5[nH]ccc5c4)c3)CC2)=C(c2ccc(Cl)cc2)C1 [Venetoclax] + CCN(CCO)CCCOc1ccc2c(Nc3cc(CC(=O)Nc4cccc(F)c4)[nH]n3)ncnc2c1 [AZD2811] (first compound max 1 µM, 7x7, partner max 1 µM)', 0.222),
  ('Cc1c2c(nn1C)CSCc1cc(n(C)n1)CSc1cc(c3ccccc3c1)OCCCc1c(C(=O)O)n(C)c3c-2c(Cl)ccc13 [AZD5991] + Nc1ccn([C@@H]2O[C@H](CO)[C@@H](O)C2(F)F)c(=O)n1 [Gemcitabine] (first compound max 1 µM, 7x7, partner max 0.3 µM)', 0.846),
  ('CC(=O)c1c(C)c2cnc(Nc3ccc(N4CCNCC4)cn3)nc2n(C2CCCC2)c1=O [Palbociclib] + Cn1cnc2c(F)c(Nc3ccc(Br)cc3Cl)c(C(=O)NOCCO)cc21 [Selumetinib] (first compound max 10 µM, 7x7, partner max 10 µM)', 0.702),
  ('O=C(c1cc(Cc2n[nH]c(=O)c3ccccc23)ccc1F)N1CCN(C(=O)C2CC2)CC1 [Olaparib] + COc1nnc2ccc(N3CCC(c4ccc(OCCN5CCN(C)C(=O)[C@H]5C)cc4)CC3)nn12 [AZD5153] (first compound max 10 µM, 7x7, partner max 1 µM)', 0.429),
  ('CC1(C)CCC(CN2CCN(c3ccc(C(=O)NS(=O)(=O)c4ccc(NCC5CCOCC5)c([N+](=O)[O-])c4)c(Oc4cnc5[nH]ccc5c4)c3)CC2)=C(c2ccc(Cl)cc2)C1 [Venetoclax] + C=CCn1c(=O)c2cnc(Nc3ccc(N4CCN(C)CC4)cc3)nc2n1-c1cccc(C(C)(C)O)n1 [AZD1775] (first compound max 1 µM, partner max 1 µM)', 0.391),
  ('COc1cccc2c1C(=O)c1c(O)c3c(c(O)c1C2=O)C[C@@](O)(C(=O)CO)C[C@@H]3O[C@H]1C[C@H](N)[C@H](O)[C@H](C)O1 [Doxorubicin] + Cc1cc2ncnn2cc1Nc1ncc2c(n1)n(C1CCOCC1)c(=O)n2C [AZD7648] (first compound max 1 µM, 7x7, partner max 10 µM)', 0.788);

---

Measured combination Emax of individual entries
- Tested on: SK-MEL-2 (Melanoma)
- protocol-notes: combination Emax (second highest fraction inhibited in the dose matrix, 72 h); higher = more inhibition; extreme values may be limits of the assay
measured-attribute: combination Emax

INSERT INTO assay_data (molecule, result) VALUES
  ('CN(CCO)CC[C@H](CSc1ccccc1)Nc1ccc(S(=O)(=O)NC(=O)c2ccc(N3CCC([C@@H](O)c4ccccc4-c4ccc(Cl)cc4)CC3)cc2)cc1S(=O)(=O)C(F)(F)F [AZD4320] + CC(=O)O[C@H]1C(=O)[C@@]2(C)[C@H]([C@H](OC(=O)c3ccccc3)[C@]3(O)C[C@H](OC(=O)[C@H](O)[C@@H](NC(=O)c4ccccc4)c4ccccc4)C(C)=C1C3(C)C)[C@]1(OC(C)=O)CO[C@@H]1C[C@@H]2O [Paclitaxel] (first compound max 1 µM, 7x7, partner max 3 µM)', 0.915),
  ('C[C@@H](Oc1cc(-c2cnn(C3CCNCC3)c2)cnc1N)c1c(Cl)ccc(F)c1Cl [Crizotinib] + CC1=C(C(=CC=C1)Cl)NC(=O)C2=CN=C(S2)NC3=CC(=NC(=N3)C)N4CCN(CC4)CCO [Dasatinib] (first compound max 10 µM, 7x7, partner max 2 µM)', 0.0969),
  ('N#Cc1cnc(Nc2cc(NC[C@H]3CNCCO3)c(C(F)(F)F)cn2)cn1 [SRA737] + O=c1[nH]cc(F)c(=O)[nH]1 [5-Fluorouracil] (first compound max 10 µM, 7x7, partner max 20 µM)', 0.113),
  ('CN(CCO)CC[C@H](CSc1ccccc1)Nc1ccc(S(=O)(=O)NC(=O)c2ccc(N3CCC([C@@H](O)c4ccccc4-c4ccc(Cl)cc4)CC3)cc2)cc1S(=O)(=O)C(F)(F)F [AZD4320] + Nc1ccn([C@@H]2O[C@H](CO)[C@@H](O)C2(F)F)c(=O)n1 [Gemcitabine] (first compound max 1 µM, 7x7, partner max 0.3 µM)', 0.0969);

---

- System: SU-DHL-10 (B-Cell Non-Hodgkin's Lymphoma);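 note: after 72 h of two-drug dosing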
- protocol-notes: Bliss excess, mean over the matrix (fraction); higher = more synergy
Binned Bliss excess; ranges: lower range (below -0.02), middle range (-0.02 to below 0.008), upper range (0.008 or more)

INSERT INTO assay_data (compound, tgt, qualitative_label) VALUES
  ('Cc1c2c(nn1C)CSCc1cc(n(C)n1)CSc1cc(c3ccccc3c1)OCCCc1c(C(=O)O)n(C)c3c-2c(Cl)ccc13 [AZD5991] + CC1(C)CCC(CN2CCN(c3ccc(C(=O)NS(=O)(=O)c4ccc(NCC5CCOCC5)c([N+](=O)[O-])c4)c(Oc4cnc5[nH]ccc5c4)c3)CC2)=C(c2ccc(Cl)cc2)C1 [Venetoclax] (first compound max 1 µM, 7x7, partner max 1 µM)', 'SU-DHL-10 (B-Cell Non-Hodgkin''s Lymphoma)', 'middle range'),
  ('Cc1c2c(nn1C)CSCc1cc(n(C)n1)CSc1cc(c3ccccc3c1)OCCCc1c(C(=O)O)n(C)c3c-2c(Cl)ccc13 [AZD5991] + C[C@@H]1COCCN1C2=NC(=NC(=C2)C3(CC3)[S@](=N)(=O)C)C4=C5C=CNC5=NC=C4 [AZD6738] (first compound max 1 µM, 7x7, partner max 10 µM)', 'SU-DHL-10 (B-Cell Non-Hodgkin''s Lymphoma)', 'middle range'),
  ('NC1(C(=O)N[C@@H](CCO)c2ccc(Cl)cc2)CCN(c2ncnc3[nH]ccc23)CC1 [Capivasertib] + Cn1cnc2c(F)c(Nc3ccc(Br)cc3Cl)c(C(=O)NOCCO)cc21 [Selumetinib] (first compound max 10 µM, 7x7, partner max 10 µM)', 'SU-DHL-10 (B-Cell Non-Hodgkin''s Lymphoma)', 'upper range'),
  ('CN(C)CCCOc1ccc(-c2ccc3ncc4c(c3c2)n(C2CCOCC2)c(=O)n4C)cn1 [AZD0156] + C[C@@H]1COCCN1C2=NC(=NC(=C2)C3(CC3)[S@](=N)(=O)C)C4=C5C=CNC5=NC=C4 [AZD6738] (first compound max 1 µM, 7x7, partner max 10 µM)', 'SU-DHL-10 (B-Cell Non-Hodgkin''s Lymphoma)', 'upper range'),
  ('CC(=O)c1c(C)c2cnc(Nc3ccc(N4CCNCC4)cn3)nc2n(C2CCCC2)c1=O [Palbociclib] + CN(CC[C@H](CSC1=CC=CC=C1)NC2=C(C=C(C=C2)S(=O)(=O)NC(=O)C3=CC=C(C=C3)N4CCC(CC4)[C@H](C5=CC=CC=C5C6=CC=C(C=C6)Cl)O)S(=O)(=O)C(F)(F)F)CCO [AZD4320] (first compound max 10 µM, 7x7, partner max 1 µM)', 'SU-DHL-10 (B-Cell Non-Hodgkin''s Lymphoma)', 'upper range'),
  ('COc1cccc(OCCCN)c1-c1cc(Nc2cnc(C#N)cn2)n[nH]1 [Prexasertib] + C[C@@H]1COCCN1C2=NC(=NC(=C2)C3(CC3)[S@](=N)(=O)C)C4=C5C=CNC5=NC=C4 [AZD6738] (first compound max 1 µM, 7x7, partner max 10 µM)', 'SU-DHL-10 (B-Cell Non-Hodgkin''s Lymphoma)', 'middle range'),
  ('CC1(C)CCC(CN2CCN(c3ccc(C(=O)NS(=O)(=O)c4ccc(NCC5CCOCC5)c([N+](=O)[O-])c4)c(Oc4cnc5[nH]ccc5c4)c3)CC2)=C(c2ccc(Cl)cc2)C1 [Venetoclax] + C1CN(CCC1(C(=O)N[C@@H](CCO)C2=CC=C(C=C2)Cl)N)C3=NC=NC4=C3C=CN4 [Capivasertib] (first compound max 1 µM, 7x7, partner max 3 µM)', 'SU-DHL-10 (B-Cell Non-Hodgkin''s Lymphoma)', 'middle range'),
  ('CN(CCO)CC[C@H](CSc1ccccc1)Nc1ccc(S(=O)(=O)NC(=O)c2ccc(N3CCC([C@@H](O)c4ccccc4-c4ccc(Cl)cc4)CC3)cc2)cc1S(=O)(=O)C(F)(F)F [AZD4320] + CN(C)CCCOc1ccc(-c2ccc3ncc4c(c3c2)n(C2CCOCC2)c(=O)n4C)cn1 [AZD0156] (first compound max 1 µM, 7x7, partner max 1 µM)', 'SU-DHL-10 (B-Cell Non-Hodgkin''s Lymphoma)', 'middle range'),
  ('Cc1c2c(nn1C)CSCc1cc(n(C)n1)CSc1cc(c3ccccc3c1)OCCCc1c(C(=O)O)n(C)c3c-2c(Cl)ccc13 [AZD5991] + CN(C)CCCOc1ccc(-c2ccc3ncc4c(c3c2)n(C2CCOCC2)c(=O)n4C)cn1 [AZD0156] (first compound max 1 µM, 7x7, partner max 1 µM)', 'SU-DHL-10 (B-Cell Non-Hodgkin''s Lymphoma)', 'lower range'),
  ('COc1cccc(OCCCN)c1-c1cc(Nc2cnc(C#N)cn2)n[nH]1 [Prexasertib] + O=C(c1cc(Cc2n[nH]c(=O)c3ccccc23)ccc1F)N1CCN(C(=O)C2CC2)CC1 [Olaparib] (first compound max 1 µM, 7x7, partner max 10 µM)', 'SU-DHL-10 (B-Cell Non-Hodgkin''s Lymphoma)', 'upper range'),
  ('COc1nnc2ccc(N3CCC(c4ccc(OCCN5CCN(C)C(=O)[C@H]5C)cc4)CC3)nn12 [AZD5153] + CN(CC[C@H](CSC1=CC=CC=C1)NC2=C(C=C(C=C2)S(=O)(=O)NC(=O)C3=CC=C(C=C3)N4CCC(CC4)[C@H](C5=CC=CC=C5C6=CC=C(C=C6)Cl)O)S(=O)(=O)C(F)(F)F)CCO [AZD4320] (first compound max 1 µM, 7x7, partner max 1 µM)', 'SU-DHL-10 (B-Cell Non-Hodgkin''s Lymphoma)', 'lower range'),
  ('C[C@@H]1COCCN1c1cc(C2([S@](C)(=N)=O)CC2)nc(-c2ccnc3[nH]ccc23)n1 [AZD6738] + O=C(c1cc(Cc2n[nH]c(=O)c3ccccc23)ccc1F)N1CCN(C(=O)C2CC2)CC1 [Olaparib] (first compound max 10 µM, 7x7, partner max 10 µM)', 'SU-DHL-10 (B-Cell Non-Hodgkin''s Lymphoma)', 'lower range');
